# Test system: S. pneumoniae D39V
# PROCEDURE_DETAILS: Bliss interaction score (quartile over a dose matrix) (fitness difference); higher = more antagonism (negative = synergy);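 also: first quartile when negative (synergy) and third quartile when positive (antagonism)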
Decision: Bliss interaction score compared against -0.06; not below it gives 1, below it gives 0.

Answered cases to consult:
CO[C@H]1/C=C/O[C@@]2(C)Oc3c(C)c(O)c4c(O)c(c(/C=N/N5CCN(C)CC5)c(O)c4c3C2=O)NC(=O)/C(C)=C\C=C\[C@H](C)[C@H](O)[C@@H](C)[C@@H](O)[C@@H](C)[C@H](OC(C)=O)[C@@H]1C [Rifampicin] + Oc1cc(Cl)ccc1Oc1ccc(Cl)cc1Cl [Triclosan] :: 1
CO[C@@]12[C@H](COC(N)=O)C3=C(C(=O)C(C)=C(N)C3=O)N1C[C@@H]1N[C@@H]12 [MitomycinC] + CC1=C\[C@@H](O)CC(=O)Cc2nc(co2)C(=O)N2CCC=C2C(=O)O[C@H](C(C)C)[C@H](C)/C=C/C(=O)NC\C=C\1 [Virginiamycin M1] :: 1
CC(=O)NC[C@H]1CN(c2ccc(N3CCOCC3)c(F)c2)C(=O)O1 [Linezolid] + CO[C@@]12[C@H](COC(N)=O)C3=C(C(=O)C(C)=C(N)C3=O)N1C[C@@H]1N[C@@H]12 [MitomycinC] :: 0
CC(=O)NC[C@H]1CN(c2ccc(N3CCOCC3)c(F)c2)C(=O)O1 [Linezolid] + O=C1CN(/N=C/c2ccc([N+](=O)[O-])o2)C(=O)N1 [Nitrofurantoin] :: 0
CO[C@@H]1[C@@H](OC(N)=O)[C@@H](O)[C@H](Oc2ccc3c(O)c(NC(=O)c4ccc(O)c(CC=C(C)C)c4)c(=O)oc3c2C)OC1(C)C [Novobiocin] + CN[C@H](CC(C)C)C(=O)N[C@H]1C(=O)N[C@@H](CC(N)=O)C(=O)N[C@H]2C(=O)N[C@H]3C(=O)N[C@H](C(=O)N[C@H](C(=O)O)c4cc(O)cc(O)c4-c4cc3ccc4O)[C@H](O)c3ccc(c(Cl)c3)Oc3cc2cc(c3O[C@@H]2O[C@H](CO)[C@@H](O)[C@H](O)[C@H]2O[C@H]2C[C@](C)(N)[C@H](O)[C@H](C)O2)Oc2ccc(cc2Cl)[C@H]1O [Vancomycin] :: 0
CC[C@H]1OC(=O)[C@H](C)[C@@H](O[C@H]2C[C@@](C)(OC)[C@@H](O)[C@H](C)O2)[C@H](C)[C@@H](O[C@@H]2O[C@H](C)C[C@H](N(C)C)[C@H]2O)[C@](C)(O)C[C@@H](C)C(=O)[C@H](C)[C@@H](O)[C@]1(C)O [Erythromycin] + CC1(C)S[C@@H]2[C@H](NC(=O)Cc3ccccc3)C(=O)N2[C@H]1C(=O)O [PenicillinG] :: 1
CO[C@H]1/C=C/O[C@@]2(C)Oc3c(C)c(O)c4c(O)c(c(/C=N/N5CCN(C)CC5)c(O)c4c3C2=O)NC(=O)/C(C)=C\C=C\[C@H](C)[C@H](O)[C@@H](C)[C@@H](O)[C@@H](C)[C@H](OC(C)=O)[C@@H]1C [Rifampicin] + CN(C)c1cc(NC(=O)CNC(C)(C)C)c(O)c2c1C[C@H]1C[C@H]3[C@H](N(C)C)C(O)=C(C(N)=O)C(=O)[C@@]3(O)C(O)=C1C2=O [Tigecycline] :: 0
CO[C@@H]1[C@@H](OC(N)=O)[C@@H](O)[C@H](Oc2ccc3c(O)c(NC(=O)c4ccc(O)c(CC=C(C)C)c4)c(=O)oc3c2C)OC1(C)C [Novobiocin] + Cn1nnc(-c2ccc(-c3ccc(N4C[C@H](CO)OC4=O)cc3F)cn2)n1 [Tedizolid] :: 0

### Prompt Reported Bliss interaction score reaches at least -0.06 for CC(=O)NC[C@H]1CN(c2ccc(N3CCOCC3)c(F)c2)C(=O)O1 [Linezolid] + C[n+]1ccc(-c2cc[n+](C)cc2)cc1 [Paraquat] ?
### Response 1

### Prompt Entry CC(=O)NC[C@H]1CN(c2ccc(N3CCOCC3)c(F)c2)C(=O)O1 [Linezolid] + C/C(=C\C(=O)OCCCCCCCCC(=O)O)C[C@@H]1OC[C@H](C[C@@H]2O[C@H]2[C@@H](C)[C@H](C)O)[C@@H](O)[C@H]1O [Pseudomonic acid] : is its Bliss interaction score no less than -0.06?
### Response 1

### Prompt Can CC[C@H]1OC(=O)[C@H](C)[C@@H](O[C@H]2C[C@@](C)(OC)[C@@H](O)[C@H](C)O2)[C@H](C)[C@@H](O[C@@H]2O[C@H](C)C[C@H](N(C)C)[C@H]2O)[C@](C)(O)C[C@@H](C)C(=O)[C@H](C)[C@@H](O)[C@]1(C)O [Erythromycin] + CO[C@@H]1[C@@H](OC(N)=O)[C@@H](O)[C@H](Oc2ccc3c(O)c(NC(=O)c4ccc(O)c(CC=C(C)C)c4)c(=O)oc3c2C)OC1(C)C [Novobiocin] be said to have Bliss interaction score at or above -0.06?
### Response 0

### Prompt Form field: Bliss interaction score at least -0.06? Entry: CC(=O)NC[C@H]1CN(c2ccc(N3CCOCC3)c(F)c2)C(=O)O1 [Linezolid] + CN1C2=CC=CC=C2N=C3C1=CC=CC3=O [Pyocyanin]
### Response 1

### Prompt Quick check, Bliss interaction score >= -0.06? CO[C@@H]1[C@@H](OC(N)=O)[C@@H](O)[C@H](Oc2ccc3c(O)c(NC(=O)c4ccc(O)c(CC=C(C)C)c4)c(=O)oc3c2C)OC1(C)C [Novobiocin] + CC[C@H]1OC(=O)[C@H](C)C(=O)[C@H](C)[C@@H](O[C@@H]2O[C@H](C)C[C@H](N(C)C)[C@H]2O)[C@](C)(OC)C[C@@H](C)C(=O)[C@H](C)[C@H]2N(CCCCn3cnc(-c4cccnc4)c3)C(=O)O[C@]12C [Telithromycin]
### Response 1

----------
Exercise: state measured Bliss interaction score for each of the compounds provided.
# System: S. aureus DSM 20231
# PROCEDURE_DETAILS: Bliss interaction score (quartile over a dose matrix) (fitness difference); higher = more antagonism (negative = synergy)
Give bare numbers.

Below, 3 compounds whose answers are already recorded.
CC[C@H]1OC(=O)[C@H](C)[C@@H](O[C@H]2C[C@@](C)(OC)[C@@H](O)[C@H](C)O2)[C@H](C)[C@@H](O[C@@H]2O[C@H](C)C[C@H](N(C)C)[C@H]2O)[C@](C)(O)C[C@@H](C)C(=O)[C@H](C)[C@@H](O)[C@]1(C)O [Erythromycin] + CN1C2=CC=CC=C2N=C3C1=CC=CC3=O [Pyocyanin] :: -0.0317
CC(=O)NC[C@H]1CN(c2ccc(N3CCOCC3)c(F)c2)C(=O)O1 [Linezolid] + CC[C@H]1OC(=O)[C@H](C)C(=O)[C@H](C)[C@@H](O[C@@H]2O[C@H](C)C[C@H](N(C)C)[C@H]2O)[C@](C)(OC)C[C@@H](C)C(=O)[C@H](C)[C@H]2N(CCCCn3cnc(-c4cccnc4)c3)C(=O)O[C@]12C [Telithromycin] :: -0.133
CO[C@H]1/C=C/O[C@@]2(C)Oc3c(C)c(O)c4c(O)c(c(/C=N/N5CCN(C)CC5)c(O)c4c3C2=O)NC(=O)/C(C)=C\C=C\[C@H](C)[C@H](O)[C@@H](C)[C@@H](O)[C@@H](C)[C@H](OC(C)=O)[C@@H]1C [Rifampicin] + COc1cc(Cc2cnc(N)nc2N)cc(OC)c1OC [Trimethoprim] :: -0.0578

Please report Bliss interaction score for every entry that follows.
1. CO[C@@]12[C@H](COC(N)=O)C3=C(C(=O)C(C)=C(N)C3=O)N1C[C@@H]1N[C@@H]12 [MitomycinC] + Cc1cc(NS(=O)(=O)c2ccc(N)cc2)no1 [Sulfamethoxazol]
2. CO[C@@H]1[C@@H](OC(N)=O)[C@@H](O)[C@H](Oc2ccc3c(O)c(NC(=O)c4ccc(O)c(CC=C(C)C)c4)c(=O)oc3c2C)OC1(C)C [Novobiocin] + CCN(CC)CCOC(=O)c1ccc(N)cc1 [Procaine]
3. CC(=O)NC[C@H]1CN(c2ccc(N3CCOCC3)c(F)c2)C(=O)O1 [Linezolid] + CCN(CC)CCOC(=O)c1ccc(N)cc1 [Procaine]
4. CC(C)(O)c1ccccc1CC[C@@H](SCC1(CC(=O)O)CC1)c1cccc(/C=C/c2ccc3ccc(Cl)cc3n2)c1 [Montelukast] + Cn1nnc(-c2ccc(-c3ccc(N4C[C@H](CO)OC4=O)cc3F)cn2)n1 [Tedizolid]
5. CO[C@@]12[C@H](COC(N)=O)C3=C(C(=O)C(C)=C(N)C3=O)N1C[C@@H]1N[C@@H]12 [MitomycinC] + CN1C2=CC=CC=C2N=C3C1=CC=CC3=O [Pyocyanin]

### Response
0.036
0.0431
-0.0676
-0.384
0.0464

----------
Please respond with reported Bliss interaction score for every item in the list.
# Test system: S. aureus DSM 20231
# PROCEDURE_DETAILS: Bliss interaction score (quartile over a dose matrix) (fitness difference); higher = more antagonism (negative = synergy)

CC(=O)NC[C@H]1CN(c2ccc(N3CCOCC3)c(F)c2)C(=O)O1 [Linezolid] + CN1C2=CC=CC=C2N=C3C1=CC=CC3=O [Pyocyanin] :: 0.047
CN[C@@H]1[C@H](O)[C@H](NC)[C@H]2O[C@@]3(O)C(=O)C[C@@H](C)O[C@H]3O[C@@H]2[C@H]1O [Spectinomycin] + Cn1nnc(-c2ccc(-c3ccc(N4C[C@H](CO)OC4=O)cc3F)cn2)n1 [Tedizolid] :: 0.0654
CO[C@@H]1[C@@H](OC(N)=O)[C@@H](O)[C@H](Oc2ccc3c(O)c(NC(=O)c4ccc(O)c(CC=C(C)C)c4)c(=O)oc3c2C)OC1(C)C [Novobiocin] + COc1ccc(C[C@H](N)C(=O)N[C@H]2[C@@H](O)[C@H](n3cnc4c(N(C)C)ncnc43)O[C@@H]2CO)cc1 [Puromycin] :: -0.0356
CO[C@@]12[C@H](COC(N)=O)C3=C(C(=O)C(C)=C(N)C3=O)N1C[C@@H]1N[C@@H]12 [MitomycinC] + CN[C@@H]1[C@H](O)[C@H](NC)[C@H]2O[C@@]3(O)C(=O)C[C@@H](C)O[C@H]3O[C@@H]2[C@H]1O [Spectinomycin] :: 0.0772
CN[C@@H]1[C@H](O)[C@H](NC)[C@H]2O[C@@]3(O)C(=O)C[C@@H](C)O[C@H]3O[C@@H]2[C@H]1O [Spectinomycin] + CN(C)c1cc(NC(=O)CNC(C)(C)C)c(O)c2c1C[C@H]1C[C@H]3[C@H](N(C)C)C(O)=C(C(N)=O)C(=O)[C@@]3(O)C(O)=C1C2=O [Tigecycline] :: -0.0602
CC(=O)NC[C@H]1CN(c2ccc(N3CCOCC3)c(F)c2)C(=O)O1 [Linezolid] + CN(C)C(=O)C(CCN1CCC(O)(c2ccc(Cl)cc2)CC1)(c1ccccc1)c1ccccc1 [Loperamide] :: 0.116

Provide each entry's Bliss interaction score from the list below.
1. CC[C@H](c1ccc(O)cc1)[C@@H](CC)c1ccc(O)cc1 [Hexestrol] + CN(C)C(=O)C(CCN1CCC(O)(c2ccc(Cl)cc2)CC1)(c1ccccc1)c1ccccc1 [Loperamide]
2. C=C1/C(=C\C=C2/CCC[C@]3(C)[C@@H]([C@H](C)CCCC(C)C)CC[C@@H]23)C[C@@H](O)C[C@@H]1O [Alfacalcidol] + O=C1CN(/N=C/c2ccc([N+](=O)[O-])o2)C(=O)N1
3. CO[C@H]1/C=C/O[C@@]2(C)Oc3c(C)c(O)c4c(O)c(c(/C=N/N5CCN(C)CC5)c(O)c4c3C2=O)NC(=O)/C(C)=C\C=C\[C@H](C)[C@H](O)[C@@H](C)[C@@H](O)[C@@H](C)[C@H](OC(C)=O)[C@@H]1C [Rifampicin] + Oc1cc(Cl)ccc1Oc1ccc(Cl)cc1Cl [Triclosan]
4. CO[C@@]12[C@H](COC(N)=O)C3=C(C(=O)C(C)=C(N)C3=O)N1C[C@@H]1N[C@@H]12 [MitomycinC] + CO[C@@H]1[C@@H](OC(N)=O)[C@@H](O)[C@H](Oc2ccc3c(O)c(NC(=O)c4ccc(O)c(CC=C(C)C)c4)c(=O)oc3c2C)OC1(C)C [Novobiocin]
5. CO[C@@]12[C@H](COC(N)=O)C3=C(C(=O)C(C)=C(N)C3=O)N1C[C@@H]1N[C@@H]12 [MitomycinC] + CC1(C)S[C@@H]2[C@H](NC(=O)Cc3ccccc3)C(=O)N2[C@H]1C(=O)O [PenicillinG]
6. CC(=O)NC[C@H]1CN(c2ccc(N3CCOCC3)c(F)c2)C(=O)O1 [Linezolid] + CN[C@@H]1[C@H](O)[C@H](NC)[C@H]2O[C@@]3(O)C(=O)C[C@@H](C)O[C@H]3O[C@@H]2[C@H]1O [Spectinomycin]

### Response
-0.456
0.185
-0.0595
-0.0588
-0.0709
-0.0609

For every item below, please supply its Bliss interaction score.
1. CN[C@@H]1[C@H](O[C@H]2[C@H](O[C@H]3[C@H](O)[C@@H](O)[C@H](N=C(N)N)[C@@H](O)[C@@H]3N=C(N)N)O[C@@H](C)[C@]2(O)C=O)O[C@@H](CO)[C@H](O)[C@H]1O [Streptomycin] + CC1=C\[C@@H](O)CC(=O)Cc2nc(co2)C(=O)N2CCC=C2C(=O)O[C@H](C(C)C)[C@H](C)/C=C/C(=O)NC\C=C\1 [Virginiamycin M1]
2. CN[C@H](CC(C)C)C(=O)N[C@H]1C(=O)N[C@@H](CC(N)=O)C(=O)N[C@H]2C(=O)N[C@H]3C(=O)N[C@H](C(=O)N[C@H](C(=O)O)c4cc(O)cc(O)c4-c4cc3ccc4O)[C@H](O[C@H]3C[C@](C)(N)[C@@H](O)[C@H](C)O3)c3ccc(c(Cl)c3)Oc3cc2cc(c3O[C@@H]2O[C@H](CO)[C@@H](O)[C@H](O)[C@H]2O[C@H]2C[C@](C)(NCc3ccc(-c4ccc(Cl)cc4)cc3)[C@@H](O)[C@H](C)O2)Oc2ccc(cc2Cl)[C@H]1O [Oritavancin] + Cn1nnc(-c2ccc(-c3ccc(N4C[C@H](CO)OC4=O)cc3F)cn2)n1 [Tedizolid]

### Response
-0.161
-0.0541
